# Tested on: human breast cancer cell line BT-474
# Protocol: MTT cell viability and drug combination studies in BT-474 cells
# Type: cell-based
# Cond: BT-474, 72 hours, read-out: D50 (concentration of drug required to inhibit 50% cell growth)
Assay endpoint: pIC50
Field pIC50 (float): negative decimal logarithm of the concentration in molar.

Query: Identify the reported pIC50 for the following entry. `CC[C@@]1(O)C(=O)OCc2c1cc1n(c2=O)Cc2cc3ccccc3nc2-1`
Response: 4.00
